Each recorded value in this set is attributed to PubChem BioAssay AID1159580.

assay: chemical genetic growth profiling, strain panel (AID 1159580);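 further: tested at 20 µM; growth read once vehicle control cultures reached saturation at 30 °C; 1 = growth at the plate median or of vehicle wells; lower values mean less growth of the strain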; conditions: S. cerevisiae deletion strains, growth OD, locus YHR079C, strain IRE1 (second series), hits give low values
Out of some 5,500 compounds screened, about 2,000 (36%) were called active. Inconclusive results (about 18%) are left out. Some of the results follow. Where a SMILES comes first, the peptide text is derived from it. Bridges are numbered along the chain shown (N, C = ends). [ ]: non-standard residue; d: D form. The star is where a group is joined. Octanoyl(6-Me) = CCC(C)CCCCC(=O)*; Dab = NCC[CH](N)C(=O)O
Answer each item with its documented normalized growth.
Could you keep your reply to the number by itself?

Form field: reported normalized growth of "CO[C@@]1(NC(=O)Cc2cccs2)C(=O)N2C(C(=O)O)=C(COC(N)=O)CS[C@@H]21"
0.995

Form field: reported normalized growth of "CC(=O)N[C@@H](Cc1c[nH]c2ccccc12)C(=O)O"
1.02

Form field: reported normalized growth of "CC(=O)NO"
0.997

Form field: reported normalized growth of "Cc1cc(=O)n(-c2ccccc2)n1C"
0.984

Form field: reported normalized growth of COc1cc2c(cc1O)CCNC2C (stereo not drawn)
0.979

Form field: reported normalized growth of "COc1c2occc2c(OC)c2c(=O)cc(C)oc12"
1

Form field: reported normalized growth of "COc1ccc2c(c1OC)OC[C@@H](c1ccc(OC)c(OC)c1OC)C2"
1.01

Form field: reported normalized growth of COc1cc2c(cc1OC)-c1c(oc3c4c(ccc3c1=O)OC(C(C)C)C4)CO2 (stereo not drawn)
0.969

Form field: reported normalized growth of CCC(C)CCCCC(=O)NC(CCN)C(=O)NC(C(=O)NC(CCN)C(=O)NC1CCNC(=O)C(C(C)O)NC(=O)C(CCN)NC(=O)C(CCN)NC(=O)C(CC(C)C)NC(=O)C(Cc2ccccc2)NC(=O)C(CCN)NC1=O)C(C)O (stereo not drawn) ({Octanoyl(6-Me)}-[Dab]T[Dab][Dab][Dab]FL[Dab][Dab]T; lactam 4-C; configuration not given here)
1.01

Form field: reported normalized growth of "COc1cc(-c2oc3cc(O)ccc3c(=O)c2O)cc(OC)c1OC"
1.01

Form field: reported normalized growth of "O=C(O)[C@H](O)[C@@](O)(Cc1ccc(O)cc1)C(=O)O"
1

Form field: reported normalized growth of NC1C[C@H]1c1ccccc1 (stereo partly drawn)
0.975

Form field: reported normalized growth of "CC(=O)Oc1cccc(C(=O)O)c1OC(C)=O"
1.01

Form field: reported normalized growth of COP(=O)(OC)OC(Br)C(Cl)(Cl)Br (stereo not drawn)
0.995

Form field: reported normalized growth of COc1cc2c(cc1OC)[C@@H]1C(=O)c3ccc4c(c3O[C@@H]1CO2)CC(C(C)C)O4 (stereo partly drawn)
1.01

Form field: reported normalized growth of "C=C(C)[C@H]1Cc2c(ccc3c2O[C@@H]2COc4cc(OC)c(OC)cc4[C@@H]2C3=O)O1"
1.02

Form field: reported normalized growth of "COc1ccc2c(=O)ccoc2c1"
0.998

Form field: reported normalized growth of "COc1ccc(C2C(=O)c3ccccc3C2=O)cc1"
0.991

====

assay: chemical genetic growth profiling, strain panel (AID 1159580);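 further: tested at 20 µM; growth read once vehicle control cultures reached saturation at 30 °C; 1 = growth at the plate median or of vehicle wells; lower values mean less growth of the strain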; details: S. cerevisiae deletion strains, growth OD, locus YBR229C, strain ROT2, hits give low values
About 2,000 (36%) of roughly 5,500 compounds were called active. Inconclusive results (about 18%) are left out. Some of the results follow.
measurement.name: normalized growth

Form field: reported normalized growth of "CCOC([O-])=Nc1c[n+](N2CCOCC2)no1"
1.01 (inactive)

Form field: reported normalized growth of "Cc1cc(C(C)(C)C)c(O)c(C)c1CC1=NCCN1"
1 (inactive)

Form field: reported normalized growth of "COc1ccc(C2C(=O)c3ccccc3C2=O)cc1"
1 (inactive)

Form field: reported normalized growth of "COc1cccc(NC(N)=S)c1"
1.01 (inactive)

Form field: reported normalized growth of "O=c1oc2c(O)c(O)cc3c(=O)oc4c(O)c(O)cc1c4c23"
0.903 (active)

Form field: reported normalized growth of C[C@]12CCC(=O)C=C1CCC1C2C(=O)C[C@@]2(C)C1CC[C@]2(O)C(=O)CO (stereo partly specified)
1 (inactive)

Form field: reported normalized growth of CC(=O)O[C@@H]1CC[C@]2(C)C3CC[C@]4(C)C(=O)CCC4C3CC[C@H]2C1 (stereo partly specified)
0.934 (inactive)

Form field: reported normalized growth of CNS(=O)(=O)c1cc(Br)ccc1S(=O)c1ccccc1C(=O)O (stereo unspecified)
1 (inactive)

Form field: reported normalized growth of COc1cc2c(cc1O)CCNC2C (stereo unspecified)
0.993 (inactive)

Form field: reported normalized growth of CC(=O)O[C@H]1CC[C@]2(C)C3CC[C@@]4(C)C(CC5O[C@@]6(CCC(C)CO6)[C@@H](C)C54)C3CC[C@H]2C1 (stereo partly specified)
0.986 (inactive)

Form field: reported normalized growth of "CN(C)/C=C1/C(=O)NN=C1CSc1ccccn1"
0.999 (inactive)
